Biological target: T1, MHC class I allele A*0301 (bound via biotin to streptavidin-coated plate)
T1 construct: iTopia MHC class I monomer on the plate; placeholder peptide and b2M removed, then reconstituted with test peptide and fresh b2M; also called A3; HLA A3
Test: iTopia peptide binding assay
Experimental: The 9 mers were tested for Peptide Binding, Off Rate and Affinity using iTopia Epitope Discovery System in accordance with the manufacturer's instructions. Briefly, 96 well microtitre plates coated with MHC molecules representing different MHC alleles are used to identify candidate peptides. […] Determinations are performed in duplicate using an ELISA plate reader and included allele specific positive controls. […]
readout.kind: % of positive control peptide binding (%)
Give just the numeric value; % need not be written.

The examples below pair each entry with its known result.
binder	unit.label	% of positive control peptide binding
GMVVAALLA (also called Peptide No 99) [5T4 9 mer peptide 99 GMVVAALLA]	%	0
VSSSSPTSS (also called Peptide No 15) [5T4 9 mer peptide 15 VSSSSPTSS]	%	2
IVPPEDERQ (also called Peptide No 92) [5T4 9 mer peptide 92 IVPPEDERQ]	%	3
VVAALLAGR (also called Peptide No 100) [5T4 9 mer peptide 100 VVAALLAGR]	%	49

Given VSAPSPLVE (also called Peptide No 85) [5T4 9 mer peptide 85 VSAPSPLVE] , respond with its % of positive control peptide binding.
7
